Values from patent US20230200390A1

test system: spring barley, HORVS Montoya; assay: Tank-mix; post-emergence: crop damage by herbicide with/without safener mefenpyr-diethyl; type: in vivo; conditions: HER 8 g a.i./ha + mefenpyr-diethyl 50 g a.i./ha, 10 DAT
As shown below, each of these compounds has a reported Reduction [%] value.
VALUE KIND: Reduction [%]

INSERT INTO assay_data (compound, value_kind, value_measured) VALUES
  ('COC(=O)C1CC(NC(=O)C2(OC)CC(c3cc(F)cc(F)c3)=NO2)CO1 (mixture of isomers)', 'Reduction [%]', '100%'),
  ('C=CCOC(=O)C1CC(NC(=O)C2(C=C)CC(c3cc(C)cc(F)c3)=NO2)CO1 (mixture of isomers)', 'Reduction [%]', '100%'),
  ('CC1(C(=O)NC2CC=C(C(=O)NS(C)(=O)=O)C2)CC(c2cc(F)cc(F)c2)=NO1 (mixture of isomers)', 'Reduction [%]', '40%'),
  ('COC(=O)C1C=CC(NC(=O)C2(C(F)(F)F)CC(c3cccc(F)c3)=NO2)C1 (stereo not shown)', 'Reduction [%]', '100%'),
  ('C=CC1(C(=O)NC2COC(C(=O)OCCOC)C2)CC(c2cc(C)cc(F)c2)=NO1 (mixture of isomers)', 'Reduction [%]', '75%'),
  ('COC(=O)C1COCC1NC(=O)C1(C)CC(c2cc(F)cc(F)c2)=NO1 (mixture of isomers)', 'Reduction [%]', '88%'),
  ('COC(=O)C1(C)CC(NC(=O)C2(C(C)(F)F)CC(c3cc(F)cc(F)c3)=NO2)CO1 (mixture of isomers)', 'Reduction [%]', '67%');
